# TARGET_OF_ASSAY: T1, cynomolgus monkey CD38 extracellular domain (ECD), tagged (cynomolgus monkey, Avitag biotinylated (in the ELISAs))
# T1 construct: also called cynomolgus monkey CD38 ED
# T1 chain: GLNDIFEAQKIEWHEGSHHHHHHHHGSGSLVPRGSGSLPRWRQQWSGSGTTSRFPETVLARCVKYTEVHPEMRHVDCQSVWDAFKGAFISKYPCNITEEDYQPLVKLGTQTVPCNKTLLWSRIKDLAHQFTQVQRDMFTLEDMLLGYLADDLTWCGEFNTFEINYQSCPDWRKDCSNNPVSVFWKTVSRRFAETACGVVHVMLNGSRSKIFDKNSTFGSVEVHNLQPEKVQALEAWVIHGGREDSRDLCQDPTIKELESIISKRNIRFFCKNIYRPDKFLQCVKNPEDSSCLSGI
# ASSAY: SPR (Biacore T200), antibody captured on Protein A, CD38 ED as analyte, 1:1 Langmuir fit;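 note: CM5 sensor chip in HBS-P buffer at pH 7.4, antibody loaded at 5 µg/mL, responses corrected against a blank reference flow cell before fitting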
PARAMETER_MEASURED: kon (M⁻¹ s⁻¹)
Reply with just the number (in M⁻¹ s⁻¹).

So what does the record say about kon for R5D1 IgG1 (antibody, V domains shown, chimeric rat-human IgG1) VH: EVQLQQSGPEVGRPGSSVKISCKASGYTFTDYIMHWVKQSPGQGLEWIGWIDPEYGRTDYAEKFKKKATLTADTSSSTAYIQLSSLASEDTATYFCARSAHTTGFGFAYWGQGTLVTVSS VL: DIQMTQSPASLSASLGETVTIECRASEDIYSNLAWYQQKPGNSPQLLIYDANSLADGVPSRFSASGSGTQFSLKINSLRSEDVASYFCQQYNNYPYTFGAGTKLELKR ?
1.11e+06
